Known inhibition of a selection of compounds
# Target or system: Mitogen-activated protein kinase kinase kinase kinase 4 (Homo sapiens) (UniProt O95819)
# Sequence (O95819 2-1239 limits assumed): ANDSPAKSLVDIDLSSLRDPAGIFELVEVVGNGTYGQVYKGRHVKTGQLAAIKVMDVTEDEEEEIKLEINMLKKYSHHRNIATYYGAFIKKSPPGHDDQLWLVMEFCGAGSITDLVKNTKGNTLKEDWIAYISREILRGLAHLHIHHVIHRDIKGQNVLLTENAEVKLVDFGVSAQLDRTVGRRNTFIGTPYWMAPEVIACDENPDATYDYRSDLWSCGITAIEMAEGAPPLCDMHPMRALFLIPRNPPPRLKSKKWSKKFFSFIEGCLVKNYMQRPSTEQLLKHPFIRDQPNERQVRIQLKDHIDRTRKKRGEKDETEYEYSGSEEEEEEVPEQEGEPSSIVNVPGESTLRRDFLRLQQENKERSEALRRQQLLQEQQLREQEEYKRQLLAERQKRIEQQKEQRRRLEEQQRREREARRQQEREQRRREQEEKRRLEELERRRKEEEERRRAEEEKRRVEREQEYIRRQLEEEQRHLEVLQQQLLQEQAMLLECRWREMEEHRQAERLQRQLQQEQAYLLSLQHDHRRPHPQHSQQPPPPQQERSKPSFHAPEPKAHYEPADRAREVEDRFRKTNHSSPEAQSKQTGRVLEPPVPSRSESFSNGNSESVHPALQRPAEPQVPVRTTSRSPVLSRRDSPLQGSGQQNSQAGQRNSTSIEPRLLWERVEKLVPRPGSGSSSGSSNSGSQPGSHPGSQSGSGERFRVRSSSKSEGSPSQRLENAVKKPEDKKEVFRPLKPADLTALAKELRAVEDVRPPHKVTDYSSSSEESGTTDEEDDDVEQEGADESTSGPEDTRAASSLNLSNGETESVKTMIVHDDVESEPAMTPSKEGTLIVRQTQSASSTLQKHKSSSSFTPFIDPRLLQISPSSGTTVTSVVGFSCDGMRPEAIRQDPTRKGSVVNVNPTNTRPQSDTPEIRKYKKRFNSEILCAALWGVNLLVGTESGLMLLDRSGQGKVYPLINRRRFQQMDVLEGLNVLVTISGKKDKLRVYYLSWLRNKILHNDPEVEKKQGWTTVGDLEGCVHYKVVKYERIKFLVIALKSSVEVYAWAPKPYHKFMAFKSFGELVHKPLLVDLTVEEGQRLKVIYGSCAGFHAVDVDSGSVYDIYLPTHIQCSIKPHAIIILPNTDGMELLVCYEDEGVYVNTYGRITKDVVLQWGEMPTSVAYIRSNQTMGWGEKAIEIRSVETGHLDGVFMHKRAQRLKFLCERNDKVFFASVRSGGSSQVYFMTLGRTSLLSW
# Applied conditions: at 0.1 µM
# Description: GSK_PKIS: MAP4K4 mean inhibition at 0.1 uM [Nanosyn]
Your answer is read as %, so omit the unit and give the number.

Example compounds with recorded inhibition:
- Smiles text: "Fc1ccc(-c2cc(-c3c[nH]nc3-c3ccccn3)ccn2)cc1"
  Readout units: "%"
  inhibition: 13.7
- Smiles text: "Nc1nc(-c2cccc(Cl)c2)c(-c2ccc3ncccc3n2)s1"
  Readout units: "%"
  inhibition: 12.6

Name the reported inhibition value associated with the compound CCN1CCC(CC(=O)Nc2n[nH]c3nnc(-c4cccc(F)c4F)cc23)CC1
2.42

Name the reported inhibition value associated with the compound CS(=O)(=O)CCNCc1ccc(-c2ccc3ncnc(Nc4ccc(OCc5ccccc5)c(C(F)(F)F)c4)c3c2)o1
2.98

Name the reported inhibition value associated with the compound CCCN(CCS(C)(=O)=O)Cc1ccc(-c2ccc3ncnc(Nc4ccc(OCc5cccc(F)c5)c(Cl)c4)c3c2)o1
1.66

Name the reported inhibition value associated with the compound CCn1c(-c2nonc2N)nc2ccccc21
4.69

Name the reported inhibition value associated with the compound COc1ccc(-c2cc(-c3c[nH]nc3-c3ccccn3)ccn2)cc1
35.5

Name the reported inhibition value associated with the compound Fc1ccc(-c2nn3ccccc3c2-c2ccncc2)cc1
5.52

Name the reported inhibition value associated with the compound CCn1c(-c2nonc2N)nc2c(C#CC(C)(C)O)ncc(OC3CCNCC3)c21
2.72

Name the reported inhibition value associated with the compound CC(C)(CO)CNC(=O)c1ccc2c(c1)/C(=N/Nc1ccc(S(N)(=O)=O)cc1)C(=O)N2
0.68

Name the reported inhibition value associated with the compound CCN(CC)S(=O)(=O)c1ccc(OC)c(Nc2ncc(-c3ccccc3)o2)c1
2.08

Name the reported inhibition value associated with the compound COc1cc(N2CCN(C(C)C)CC2)ccc1Nc1nc(Nc2ccc(F)cc2C(N)=O)c2cc[nH]c2n1
18.1

Name the reported inhibition value associated with the compound N#Cc1c(NC(=O)CN2CCOCC2)sc2c1CCCC2
10.5

Name the reported inhibition value associated with the compound Nc1ncc(-c2cccc(S(N)(=O)=O)c2)c2scc(-c3ccc(F)c(Cl)c3)c12
78.5

Name the reported inhibition value associated with the compound COc1cc(/C=N/Nc2ncnc3[nH]ncc23)ccc1O
7.81

Name the reported inhibition value associated with the compound CNC(=O)c1cc(-c2ccc(F)cc2)cc(-c2ccc(S(=O)(=O)N3CCCC3)cc2)c1N
3.33

Name the reported inhibition value associated with the compound CNC(=O)c1cccc(C#Cc2cncnc2Nc2ccc(OCc3cccc(F)c3)c(Cl)c2)c1
-0.86

Name the reported inhibition value associated with the compound COc1cc2ncn(-c3cc(OCc4ccccc4C(F)(F)F)c(C(=O)N(C)C)s3)c2cc1OC
0.42

Name the reported inhibition value associated with the compound Cc1ccc2c(-c3ccnc(Nc4ccccc4)n3)c(-c3ccc(F)cc3)nn2n1
12.3

Name the reported inhibition value associated with the compound O=C(O[C@H]1CN[C@H](C#Cc2cc3ncnc(Nc4ccc(Cc5ccccc5)cc4)c3s2)C1)N1CCOCC1
-0.42

###

Known inhibition of a selection of compounds
# Target or system: Cyclin-dependent kinase 2 (Homo sapiens) (UniProt P24941);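 also: mean inhibition of CDK2 in complex with cyclin E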
# Applied conditions: at 0.1 µM
Your answer is read as %, so omit the unit and give the number.

Example compounds with recorded inhibition:
- Smiles text: "Fc1ccc(-c2nn3ncccc3c2-c2ccnc(Nc3ccc4c(c3)OCCO4)n2)cc1"
  Readout units: "%"
  Readout number: 2.71
- Smiles text: "NC(=O)c1sc(-n2cnc3ccc(C(F)(F)F)cc32)cc1OCc1ccccc1Br"
  Readout units: "%"
  Readout number: 1.94

Name the reported inhibition value associated with the compound Fc1ccc(-c2cc(-c3c[nH]nc3-c3ccccn3)ccn2)cc1
2.72

Name the reported inhibition value associated with the compound CNC(=O)c1cccc(C#Cc2cncnc2Nc2ccc(OCc3cccc(F)c3)c(Cl)c2)c1
4.58

Name the reported inhibition value associated with the compound CCn1cc(-c2ccnc3[nH]ccc23)c(-c2cccc(NC(=O)Nc3ccc(OCc4ccccc4)cc3)c2)n1
-0.54
